Target: hCA IX (Homo sapiens)
Assay: Carbonic anhydrase inhibition, stopped-flow CO2 hydration, hCA IX
Conditions: read-out: IC50 (mean ± SD) Carbonic anhydrase isoforms hCA IX
reportedProperty: IC50 (nM)

Give IC50 for [N-]=[N+]=Nc1ccc(S(=O)(=O)NC2CCCCC2)cc1 [Compound 4, 4-Azido-N-cyclohexylbenzenesulfonamide]
142

1 = CC(=O)O[C@@H]1[C@@H](OC(C)=O)[C@H](OCc2cn(-c3ccc(S(=O)(=O)NC4CCCCC4)cc3)nn2)OC[C@H]1OC(C)=O
2 = CC(=O)OC[C@H]1O[C@@H](OCc2cn(-c3ccc(S(=O)(=O)NC4CCCCC4)cc3)nn2)[C@H](OC(C)=O)[C@@H](OC(C)=O)[C@H]1OC(C)=O
Given the two records 1 and 2 , choose the one whose IC50 value is lower. Write the label of whichever entry you select.
1
